system: NCI-H1417 complex spheroids, growth % test/control; assay: Anticancer human tumor NCI-H1417 cell line growth inhibition [Asc]; conditions: second compound 1 µM; first compound 0.000316 µM; stronger effect = lower value;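 also: spheroids exposed to compounds for 7 days; 100% = DMSO vehicle control wells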
Outcome measure: viability, T/C (%)
Expressed in %, but write only the number.

viability, T/C for NC1CCC(NC2CC2c2ccccc2)CC1 (centres undefined) + CNC(C)C(=O)NC1CN(S(=O)(=O)c2cccc(S(=O)(=O)N3CCC4CCC(C(=O)NC(c5ccccc5)c5ccccc5)N4C(=O)C(NC(=O)C(C)NC)C3)c2)CCC2CCC(C(=O)NC(c3ccccc3)c3ccccc3)N2C1=O is 97.2

viability, T/C for NC1CCC(NC2CC2c2ccccc2)CC1 (centres undefined) + Cc1c(S(C)(=O)=O)c(-c2cc(F)cc(N3CCN(c4ccc(NS(=O)(=O)c5ccc(NC(CCN6CCC(C(=O)OCCCP(=O)(O)O)CC6)CSc6ccccc6)c(S(=O)(=O)C(F)(F)F)c5)cc4)CC3)c2)c(-c2ccc(Cl)cc2)n1C(C)C is 12.5

viability, T/C for Cn1ncnc1[C@H]1c2n[nH]c(=O)c3cc(F)cc(c23)N[C@@H]1c1ccc(F)cc1 + CNC(C)C(=O)NC1CN(S(=O)(=O)c2cccc(S(=O)(=O)N3CCC4CCC(C(=O)NC(c5ccccc5)c5ccccc5)N4C(=O)C(NC(=O)C(C)NC)C3)c2)CCC2CCC(C(=O)NC(c3ccccc3)c3ccccc3)N2C1=O is 98

viability, T/C for Cn1ncnc1[C@H]1c2n[nH]c(=O)c3cc(F)cc(c23)N[C@@H]1c1ccc(F)cc1 + Cc1c(S(C)(=O)=O)c(-c2cc(F)cc(N3CCN(c4ccc(NS(=O)(=O)c5ccc(NC(CCN6CCC(C(=O)OCCCP(=O)(O)O)CC6)CSc6ccccc6)c(S(=O)(=O)C(F)(F)F)c5)cc4)CC3)c2)c(-c2ccc(Cl)cc2)n1C(C)C is 12.5

* * *

Test system: NCI-H1417 complex spheroids, growth % test/control
Experiment: Anticancer human tumor NCI-H1417 cell line growth inhibition [Asc];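 also: spheroids exposed to compounds for 7 days; 100% = DMSO vehicle control wells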
Conditions: second compound 10 µM; first compound 0.0316 µM; stronger effect = lower value
Excerpt: Multicellular complex tumor spheroid response to apoptosis pathway targeting inhibitors Alrizomadlin, Pelcitoclax, and Dasminapant in combination with a variety of drugs and investigational agents in selected tumor cell lines […] Compounds. […] If the clinical Cmax for an agent had not been determined, the highest concentration tested was 10 microM. […]
Outcome measure: viability, T/C

viability, T/C for O=C(c1ccc(F)c(F)c1Nc1ccc(I)cc1F)N1CC(O)([C@@H]2CCCCN2)C1 + Cc1c(S(C)(=O)=O)c(-c2cc(F)cc(N3CCN(c4ccc(NS(=O)(=O)c5ccc(NC(CCN6CCC(C(=O)OCCCP(=O)(O)O)CC6)CSc6ccccc6)c(S(=O)(=O)C(F)(F)F)c5)cc4)CC3)c2)c(-c2ccc(Cl)cc2)n1C(C)C is 1.55%

viability, T/C for CNC(C)C(=O)NC1CN(S(=O)(=O)c2cccc(S(=O)(=O)N3CCC4CCC(C(=O)NC(c5ccccc5)c5ccccc5)N4C(=O)C(NC(=O)C(C)NC)C3)c2)CCC2CCC(C(=O)NC(c3ccccc3)c3ccccc3)N2C1=O (stereo not drawn) + Cc1c(S(C)(=O)=O)c(-c2cc(F)cc(N3CCN(c4ccc(NS(=O)(=O)c5ccc(NC(CCN6CCC(C(=O)OCCCP(=O)(O)O)CC6)CSc6ccccc6)c(S(=O)(=O)C(F)(F)F)c5)cc4)CC3)c2)c(-c2ccc(Cl)cc2)n1C(C)C is 3.22%

viability, T/C for NC1CCC(NC2CC2c2ccccc2)CC1 (stereo not drawn) + Cc1c(S(C)(=O)=O)c(-c2cc(F)cc(N3CCN(c4ccc(NS(=O)(=O)c5ccc(NC(CCN6CCC(C(=O)OCCCP(=O)(O)O)CC6)CSc6ccccc6)c(S(=O)(=O)C(F)(F)F)c5)cc4)CC3)c2)c(-c2ccc(Cl)cc2)n1C(C)C is 2.09%

viability, T/C for CCN1CCN(Cc2ccc(Nc3ncc(F)c(-c4cc(F)c5nc(C)n(C(C)C)c5c4)n3)nc2)CC1 + Cc1c(S(C)(=O)=O)c(-c2cc(F)cc(N3CCN(c4ccc(NS(=O)(=O)c5ccc(NC(CCN6CCC(C(=O)OCCCP(=O)(O)O)CC6)CSc6ccccc6)c(S(=O)(=O)C(F)(F)F)c5)cc4)CC3)c2)c(-c2ccc(Cl)cc2)n1C(C)C is 2.21%

viability, T/C for C=CC(=O)N1CCN(c2nc(=O)n(-c3c(C)ccnc3C(C)C)c3nc(-c4c(O)cccc4F)c(F)cc23)C(C)C1 (stereo not drawn) + Cc1c(S(C)(=O)=O)c(-c2cc(F)cc(N3CCN(c4ccc(NS(=O)(=O)c5ccc(NC(CCN6CCC(C(=O)OCCCP(=O)(O)O)CC6)CSc6ccccc6)c(S(=O)(=O)C(F)(F)F)c5)cc4)CC3)c2)c(-c2ccc(Cl)cc2)n1C(C)C is 2.86%

viability, T/C for Cn1ncnc1[C@H]1c2n[nH]c(=O)c3cc(F)cc(c23)N[C@@H]1c1ccc(F)cc1 + Cc1c(S(C)(=O)=O)c(-c2cc(F)cc(N3CCN(c4ccc(NS(=O)(=O)c5ccc(NC(CCN6CCC(C(=O)OCCCP(=O)(O)O)CC6)CSc6ccccc6)c(S(=O)(=O)C(F)(F)F)c5)cc4)CC3)c2)c(-c2ccc(Cl)cc2)n1C(C)C is 3.14%

viability, T/C for O=C(c1cc(Cc2n[nH]c(=O)c3ccccc23)ccc1F)N1CCN(C(=O)C2CC2)CC1 + Cc1c(S(C)(=O)=O)c(-c2cc(F)cc(N3CCN(c4ccc(NS(=O)(=O)c5ccc(NC(CCN6CCC(C(=O)OCCCP(=O)(O)O)CC6)CSc6ccccc6)c(S(=O)(=O)C(F)(F)F)c5)cc4)CC3)c2)c(-c2ccc(Cl)cc2)n1C(C)C is 2.71%

viability, T/C for COc1c(OCCCN2CCOCC2)ccc2c3n(c(=NC(=O)c4cnc(N)nc4)nc12)CCN3 + Cc1c(S(C)(=O)=O)c(-c2cc(F)cc(N3CCN(c4ccc(NS(=O)(=O)c5ccc(NC(CCN6CCC(C(=O)OCCCP(=O)(O)O)CC6)CSc6ccccc6)c(S(=O)(=O)C(F)(F)F)c5)cc4)CC3)c2)c(-c2ccc(Cl)cc2)n1C(C)C is 1.06%

* * *

System: NCI-H1417 complex spheroids, growth % test/control
Assay: Anticancer human tumor NCI-H1417 cell line growth inhibition [Asc];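 also: spheroids exposed to compounds for 7 days; 100% = DMSO vehicle control wells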
Details: second compound 3 µM; first compound 3.16 µM; stronger effect = lower value
Source text: Multicellular complex tumor spheroid response to apoptosis pathway targeting inhibitors Alrizomadlin, Pelcitoclax, and Dasminapant in combination with a variety of drugs and investigational agents in selected tumor cell lines […] Compounds. […] If the clinical Cmax for an agent had not been determined, the highest concentration tested was 10 microM. […]
For each of the molecules below, state its viability, T/C.

viability, T/C for O=C(c1cc(Cc2n[nH]c(=O)c3ccccc23)ccc1F)N1CCN(C(=O)C2CC2)CC1 + CCN1C(C(=O)NC23CCC(C(=O)O)(CC2)CC3)C(c2cccc(Cl)c2F)C2(C(=O)Nc3cc(Cl)ccc32)C12CCCCC2 is 51.5%

viability, T/C for C#Cc1c(F)ccc2cc(O)cc(-c3ncc4c(N5CC6CCC(C5)N6)nc(OCC56CCCN5CC(F)C6)nc4c3F)c12 (centres undefined) + CCN1C(C(=O)NC23CCC(C(=O)O)(CC2)CC3)C(c2cccc(Cl)c2F)C2(C(=O)Nc3cc(Cl)ccc32)C12CCCCC2 is 89.5%

viability, T/C for C=CC(=O)N1CCN(c2nc(=O)n(-c3c(C)ccnc3C(C)C)c3nc(-c4c(O)cccc4F)c(F)cc23)C(C)C1 (centres undefined) + CCN1C(C(=O)NC23CCC(C(=O)O)(CC2)CC3)C(c2cccc(Cl)c2F)C2(C(=O)Nc3cc(Cl)ccc32)C12CCCCC2 is 93.4%

viability, T/C for C=C(F)C(=O)N1CCN(c2nc(OCC3CCCN3C)nc3c2CCN(c2cccc4cccc(Cl)c24)C3)CC1CC#N (centres undefined) + CCN1C(C(=O)NC23CCC(C(=O)O)(CC2)CC3)C(c2cccc(Cl)c2F)C2(C(=O)Nc3cc(Cl)ccc32)C12CCCCC2 is 37.8%

* * *

For each of the compounds below, state its viability, T/C.
tested on: NCI-H1417 complex spheroids, growth % test/control; test: Anticancer human tumor NCI-H1417 cell line growth inhibition [Asc]; conditions: second compound 0.03 µM; first compound 0.0316 µM; stronger effect = lower value;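 also: spheroids exposed to compounds for 7 days; 100% = DMSO vehicle control wells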
Expressed in %, but write only the number.

viability, T/C for C=CC(=O)N1CCN(c2nc(=O)n(-c3c(C)ccnc3C(C)C)c3nc(-c4c(O)cccc4F)c(F)cc23)C(C)C1 (configuration not stated) + CCN1C(C(=O)NC23CCC(C(=O)O)(CC2)CC3)C(c2cccc(Cl)c2F)C2(C(=O)Nc3cc(Cl)ccc32)C12CCCCC2 is 94.4

viability, T/C for CNC(C)C(=O)NC1CN(S(=O)(=O)c2cccc(S(=O)(=O)N3CCC4CCC(C(=O)NC(c5ccccc5)c5ccccc5)N4C(=O)C(NC(=O)C(C)NC)C3)c2)CCC2CCC(C(=O)NC(c3ccccc3)c3ccccc3)N2C1=O (configuration not stated) + CCN1C(C(=O)NC23CCC(C(=O)O)(CC2)CC3)C(c2cccc(Cl)c2F)C2(C(=O)Nc3cc(Cl)ccc32)C12CCCCC2 is 112
